The measurements presented in this section are drawn from patent US5945440A.

# subjectOfTest: MLC kinase (myosin light-chain kinase) (Gallus gallus, UniProt P11799)
# Construct: MLC kinase was purified from chicken stomach; from tissue; host or cells: chicken stomach (gizzard smooth muscle)
# Sequence (P11799 935-1906): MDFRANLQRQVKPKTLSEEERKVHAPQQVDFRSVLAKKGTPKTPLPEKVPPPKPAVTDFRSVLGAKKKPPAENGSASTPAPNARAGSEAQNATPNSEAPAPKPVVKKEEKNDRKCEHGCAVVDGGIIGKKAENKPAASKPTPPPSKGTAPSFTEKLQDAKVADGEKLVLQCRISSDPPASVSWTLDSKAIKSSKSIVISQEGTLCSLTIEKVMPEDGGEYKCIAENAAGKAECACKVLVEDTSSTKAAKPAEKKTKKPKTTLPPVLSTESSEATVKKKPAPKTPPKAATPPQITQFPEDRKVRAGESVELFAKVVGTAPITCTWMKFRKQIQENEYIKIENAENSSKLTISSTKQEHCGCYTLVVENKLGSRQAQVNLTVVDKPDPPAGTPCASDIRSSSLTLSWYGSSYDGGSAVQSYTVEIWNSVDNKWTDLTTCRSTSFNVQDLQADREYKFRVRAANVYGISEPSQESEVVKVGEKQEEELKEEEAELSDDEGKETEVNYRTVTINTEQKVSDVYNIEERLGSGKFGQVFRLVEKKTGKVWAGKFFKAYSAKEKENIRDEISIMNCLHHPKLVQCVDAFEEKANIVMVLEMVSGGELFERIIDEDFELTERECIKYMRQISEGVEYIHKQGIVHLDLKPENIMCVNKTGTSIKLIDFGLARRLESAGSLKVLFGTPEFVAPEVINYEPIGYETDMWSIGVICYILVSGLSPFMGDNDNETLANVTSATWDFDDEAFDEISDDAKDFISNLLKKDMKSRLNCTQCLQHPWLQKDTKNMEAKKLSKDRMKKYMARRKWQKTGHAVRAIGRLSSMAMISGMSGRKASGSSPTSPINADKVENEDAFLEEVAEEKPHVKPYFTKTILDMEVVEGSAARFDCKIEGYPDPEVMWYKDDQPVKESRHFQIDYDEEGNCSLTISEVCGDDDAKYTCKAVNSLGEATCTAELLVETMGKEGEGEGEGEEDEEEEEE
# experimentDescription: inhibition of MLC kinase, in vitro enzyme test (32P phosphate incorporation)
# Type: biochemical, chicken (stomach)
# assayContext: 1 nM MLC kinase, 250 μM ATP, pH 7.2, 20 minutes at 30° C.; read-out: inhibition of the protein kinases, MLC-kinase IC50
I'd be grateful if you could share measured IC50 for these entries.
Your answer should be a plain number; it is taken to be in nM.

Looking for the measured IC50 of "CC(C)NCCCn1c2ccccc2c2c3c(c4c5ccccc5n(C)c4c21)C(=O)NC3=O" , can you help? 21

Could you share which IC50 value was measured for "COc1cc2c3c4c(c5c6ccccc6n(C)c5c3n(CCC#N)c2cc1OC)C(=O)NC4=O" ? 17

Data request, read-out IC50, for "COc1ccc2c(c1)c1c3c(c4c5cc(Cl)ccc5n(CCC#N)c4c1n2C)C(=O)NC3=O" 32

Look up IC50: "COc1ccc2c(c1)c1c3c(c4c5cc(OC)ccc5n(CCC#N)c4c1n2C)C(=O)NC3=O" 180

Entry under review: "CN(C)CCCn1c2ccc(O)cc2c2c3c(c4c5cc(O)ccc5[nH]c4c21)C(=O)NC3=O" . Reported IC50? 6.1

Query: IC50; subject: COc1ccc2[nH]c3c4[nH]c5ccccc5c4c4c(c3c2c1)C(=O)NC4=O [Example 11b] 60

Which IC50 reading was recorded for the compound "Cn1c2ccccc2c2c3c(c4c5ccccc5n(CC#N)c4c21)C(=O)NC3=O" ? 17

Entry "COc1ccc2[nH]c3c(c4c(c5c6cc(OC)ccc6n(C)c35)C(=O)NC4=O)c2c1" : reported IC50 = ? 8.7

Need IC50 of "O=C1NC(=O)c2c1c1c3cc(O)ccc3[nH]c1c1[nH]c3ccc(O)cc3c21" , thanks. 5.7

# query: IC50 of entry "Cn1c2ccccc2c2c3c(c4c5cc(O)ccc5n(CCC#N)c4c21)C(=O)NC3=O" 19

Bench note: what IC50 did "CC(C)N(CCCn1c2ccccc2c2c3c(c4c5ccccc5[nH]c4c21)C(=O)NC3=O)C(C)C" show? 110

What value of IC50 has been recorded for this entry: "COc1ccc2c(c1)c1c3c(c4c5ccccc5n(CCC#N)c4c1n2C)C(=O)NC3=O" 49

Need IC50 of "COc1ccc2c(c1)c1c3c(c4c5ccccc5n(C)c4c1n2CCCC#N)C(=O)NC3=O" , thanks. 32

Quick one: IC50 of "Cn1c2ccccc2c2c3c(c4c5cc(O)c(O)cc5n(CCC#N)c4c21)C(=O)NC3=O" ? 32

Given "Cn1c2ccc(O)cc2c2c3c(c4c5ccccc5n(CCC#N)c4c21)C(=O)NC3=O" , state its recorded IC50. 18

// IC50 lookup, key: "NC(=O)CCn1c2ccccc2c2c3c(c4c5ccccc5[nH]c4c21)C(=O)NC3=O" 3.7

Which IC50 is reported for this compound? "COc1ccc2c(c1)c1c3c(c4c5cc(OC)ccc5n(CCCC#N)c4c1n2C)C(=O)NC3=O" 29

Which value of IC50 has been reported for "CN(C)CCCn1c2ccccc2c2c3c(c4c5ccccc5n(C)c4c21)C(=O)NC3=O" in the records? 45

For the compound shown here, "CN(C)CCn1c2ccccc2c2c3c(c4c5ccccc5n(C)c4c21)C(=O)NC3=O" , give the reported IC50. 7.2

# lookup: IC50 of O=C1NC(=O)c2c1c1c3ccccc3[nH]c1c1[nH]c3cc(Cl)ccc3c21 [Example 11c] 86
